Measured values drawn from patent US7759331B2 for this set.

Molecular target: Tie2(h) (Homo sapiens, UniProt Q02763)
Sequence (Q02763 23-1124): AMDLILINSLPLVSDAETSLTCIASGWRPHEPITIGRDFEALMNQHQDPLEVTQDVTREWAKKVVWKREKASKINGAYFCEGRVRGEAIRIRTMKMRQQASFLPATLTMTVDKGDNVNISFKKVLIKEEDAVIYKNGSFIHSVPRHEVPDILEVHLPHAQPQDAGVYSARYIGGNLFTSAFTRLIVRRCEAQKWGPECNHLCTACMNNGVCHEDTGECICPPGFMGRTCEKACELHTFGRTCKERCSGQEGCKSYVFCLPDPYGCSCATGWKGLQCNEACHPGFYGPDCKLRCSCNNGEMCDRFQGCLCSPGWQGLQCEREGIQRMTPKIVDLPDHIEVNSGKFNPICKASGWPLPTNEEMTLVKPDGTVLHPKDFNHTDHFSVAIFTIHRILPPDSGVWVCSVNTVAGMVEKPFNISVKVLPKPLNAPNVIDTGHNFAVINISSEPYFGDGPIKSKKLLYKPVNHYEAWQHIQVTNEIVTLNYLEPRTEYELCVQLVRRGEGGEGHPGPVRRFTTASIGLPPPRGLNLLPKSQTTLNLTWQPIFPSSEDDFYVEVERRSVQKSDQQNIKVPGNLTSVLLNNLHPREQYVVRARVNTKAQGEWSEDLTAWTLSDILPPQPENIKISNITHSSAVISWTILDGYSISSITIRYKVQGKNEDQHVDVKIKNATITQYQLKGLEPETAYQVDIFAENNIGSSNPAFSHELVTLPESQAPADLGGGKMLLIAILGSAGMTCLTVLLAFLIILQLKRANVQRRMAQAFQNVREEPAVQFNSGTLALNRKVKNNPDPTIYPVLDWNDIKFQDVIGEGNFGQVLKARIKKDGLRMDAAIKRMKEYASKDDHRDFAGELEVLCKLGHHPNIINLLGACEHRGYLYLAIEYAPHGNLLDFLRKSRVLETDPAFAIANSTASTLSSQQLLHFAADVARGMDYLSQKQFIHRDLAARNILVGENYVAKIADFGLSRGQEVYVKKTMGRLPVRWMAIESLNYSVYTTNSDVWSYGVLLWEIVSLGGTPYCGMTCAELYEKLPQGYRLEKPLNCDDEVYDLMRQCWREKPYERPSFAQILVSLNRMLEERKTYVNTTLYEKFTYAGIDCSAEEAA
Assay: Protein kinase selectivity panel
Format: biochemical
Conditions: 1.0 μM compound, 10 μM ATP
Description: Protein kinase selectivity assays were performed as described in the scientific literature (Davies, S. P., et al., Biochem. J. 2000, 351, 95-105). Briefly, protein kinases were assayed for their ability to phosphorylate the appropriate peptide/protein substrates in the presence of 1.0 μM compound. Assays were done using 10 μM ATP and were linear with respect to time. […]
As shown below, each of these molecules has a reported Activity at Protein Kinase Assays (% of control), Tie2(h) value.

[[record]]
smiles_string = "CN(C)c1nc2ccc1CCCCn1cc(c3ccccc31)C1=C(C(=O)NC1=O)c1cn(c3ccccc13)CCC2"
system = "Tie2(h) (Homo sapiens, UniProt Q02763)"
recorded_value = "110 % of control"

[[record]]
smiles_string = "CN(C)c1cc2cc(n1)CCCn1cc(c3ccccc31)C1=C(C(=O)NC1=O)c1cn(c3ccccc13)CCC2"
system = "Tie2(h) (Homo sapiens, UniProt Q02763)"
recorded_value = "109 % of control"

[[record]]
smiles_string = "O=C1NC(=O)C2=C1c1cn(c3ccccc13)CCCc1ccc(c(N3CCCC3)n1)CCCn1cc2c2ccccc21"
system = "Tie2(h) (Homo sapiens, UniProt Q02763)"
recorded_value = "107 % of control"


# ---- query molecule ----
Q: API: value(readout= Activity at Protein Kinase Assays (% of control), Tie2(h), system= Tie2(h) (Homo sapiens, UniProt Q02763), query= `O=C1NC(=O)C2=C1c1cn(c3ccccc13)CCCc1cc(nc(N3CCCC3)c1)CCCn1cc2c2ccccc21` )
Ans: 96 % of control
